Ref: patent US11439639B2

assayed-system: Orai1/STIM1 channels (Homo sapiens, UniProt Q96D31)
Sequence (Q96D31 whole entry): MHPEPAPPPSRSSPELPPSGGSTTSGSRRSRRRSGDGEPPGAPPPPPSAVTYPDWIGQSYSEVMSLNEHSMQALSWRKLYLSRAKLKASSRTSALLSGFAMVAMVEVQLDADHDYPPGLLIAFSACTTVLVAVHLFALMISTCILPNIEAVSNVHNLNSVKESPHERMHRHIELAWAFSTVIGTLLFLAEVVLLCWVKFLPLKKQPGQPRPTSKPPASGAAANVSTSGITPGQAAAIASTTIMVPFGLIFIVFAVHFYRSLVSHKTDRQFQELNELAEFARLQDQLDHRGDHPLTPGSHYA
Sequence (Q13586 23-685 partner): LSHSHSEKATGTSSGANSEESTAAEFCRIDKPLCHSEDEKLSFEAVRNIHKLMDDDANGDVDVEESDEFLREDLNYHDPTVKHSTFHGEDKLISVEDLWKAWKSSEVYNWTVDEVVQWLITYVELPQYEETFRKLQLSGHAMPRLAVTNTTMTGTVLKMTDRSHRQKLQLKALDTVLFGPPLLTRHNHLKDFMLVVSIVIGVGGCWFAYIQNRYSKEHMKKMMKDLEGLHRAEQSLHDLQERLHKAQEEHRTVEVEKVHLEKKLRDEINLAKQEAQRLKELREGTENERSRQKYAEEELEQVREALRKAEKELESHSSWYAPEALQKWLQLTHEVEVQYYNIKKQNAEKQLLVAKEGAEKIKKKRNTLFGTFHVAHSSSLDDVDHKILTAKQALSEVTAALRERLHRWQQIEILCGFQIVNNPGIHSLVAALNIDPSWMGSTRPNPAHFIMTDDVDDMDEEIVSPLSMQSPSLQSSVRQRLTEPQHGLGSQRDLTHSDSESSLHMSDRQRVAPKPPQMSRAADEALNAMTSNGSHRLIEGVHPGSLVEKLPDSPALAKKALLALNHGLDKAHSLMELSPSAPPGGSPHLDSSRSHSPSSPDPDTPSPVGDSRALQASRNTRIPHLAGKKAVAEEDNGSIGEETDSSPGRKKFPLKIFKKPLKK
method-notes: CRAC channel inhibition, Orai1/STIM1
conditions-used: Orai1/STIM1 channels
readout-type: pIC50
Give bare numbers, as −log10 of the molar value.

O=C(Nc1ccn(Cc2ccc(O)cc2C(F)(F)F)n1)c1c(F)cccc1F [GSK-7975A, reference compound] :: 6.40

Next up:
QUERY: Dear colleague, I am looking for the recorded pIC50 of the following molecule: Cc1cccc(F)c1C(=O)Nc1cnc(-c2cc3c(cc2Cl)OC(F)(F)O3)cn1 [Compound I]
RESULT: 6.92

----------
assayed-system: Orai2/STIM1 channels (Homo sapiens, UniProt Q96SN7)
Sequence (Q96SN7 whole entry, one chain of several): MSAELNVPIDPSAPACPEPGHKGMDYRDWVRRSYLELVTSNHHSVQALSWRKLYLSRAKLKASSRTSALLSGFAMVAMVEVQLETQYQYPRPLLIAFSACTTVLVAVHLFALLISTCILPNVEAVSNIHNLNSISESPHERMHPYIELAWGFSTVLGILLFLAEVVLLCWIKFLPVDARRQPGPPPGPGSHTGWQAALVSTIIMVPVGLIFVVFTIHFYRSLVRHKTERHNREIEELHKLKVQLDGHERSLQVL
method-notes: CRAC channel inhibition, Orai2/STIM1
readout-type: IC50
Give me the value, and tack the unit on after it.

Cc1cccc(F)c1C(=O)Nc1cnc(-c2cc3c(cc2Cl)OC(F)(F)O3)cn1 [Compound I] :: 895 nM

Next up:
QUERY: Dear colleague, I am looking for the recorded IC50 of the following compound: O=C(Nc1ccn(Cc2ccc(O)cc2C(F)(F)F)n1)c1c(F)cccc1F [GSK-7975A, reference compound]
RESULT: 1450 nM
